# tgt: Voltage-gated inwardly rectifying potassium channel KCNH2 (Homo sapiens, UniProt Q12809)
# Sequence (Q12809 whole entry): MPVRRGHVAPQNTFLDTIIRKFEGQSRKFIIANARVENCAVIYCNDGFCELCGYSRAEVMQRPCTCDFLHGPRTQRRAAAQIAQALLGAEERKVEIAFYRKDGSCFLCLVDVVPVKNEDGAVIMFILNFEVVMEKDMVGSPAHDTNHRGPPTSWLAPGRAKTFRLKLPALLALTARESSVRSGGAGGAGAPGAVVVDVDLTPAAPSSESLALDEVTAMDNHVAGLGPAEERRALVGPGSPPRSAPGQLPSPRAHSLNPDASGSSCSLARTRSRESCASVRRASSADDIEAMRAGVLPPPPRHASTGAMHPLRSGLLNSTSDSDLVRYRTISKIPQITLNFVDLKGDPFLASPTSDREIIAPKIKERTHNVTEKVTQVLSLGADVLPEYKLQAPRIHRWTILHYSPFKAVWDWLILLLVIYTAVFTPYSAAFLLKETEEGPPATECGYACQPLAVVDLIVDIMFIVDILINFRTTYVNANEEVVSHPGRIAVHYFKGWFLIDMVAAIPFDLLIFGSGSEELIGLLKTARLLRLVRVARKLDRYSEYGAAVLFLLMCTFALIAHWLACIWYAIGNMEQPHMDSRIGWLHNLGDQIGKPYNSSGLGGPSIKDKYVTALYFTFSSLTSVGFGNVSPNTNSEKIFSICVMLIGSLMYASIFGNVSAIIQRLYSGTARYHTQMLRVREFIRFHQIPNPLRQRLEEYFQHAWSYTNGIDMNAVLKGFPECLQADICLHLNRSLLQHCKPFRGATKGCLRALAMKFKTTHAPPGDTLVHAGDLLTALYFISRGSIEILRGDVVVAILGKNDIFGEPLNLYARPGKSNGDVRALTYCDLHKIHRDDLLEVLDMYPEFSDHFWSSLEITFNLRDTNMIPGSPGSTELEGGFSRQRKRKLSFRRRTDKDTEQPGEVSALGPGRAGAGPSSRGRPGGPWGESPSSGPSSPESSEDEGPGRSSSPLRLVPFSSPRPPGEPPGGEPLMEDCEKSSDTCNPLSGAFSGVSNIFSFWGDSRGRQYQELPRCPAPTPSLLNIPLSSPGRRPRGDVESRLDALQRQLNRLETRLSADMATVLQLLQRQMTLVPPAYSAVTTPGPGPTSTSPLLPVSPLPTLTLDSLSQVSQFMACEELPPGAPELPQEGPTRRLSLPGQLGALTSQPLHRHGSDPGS
# assay_remarks: Inhibition of K+ channel activity in CHO cells expressing HERG Kv11.1
Each record here notes measured pIC50.
Bear in mind: pIC50 is minus log10 of a mol/L concentration; give just that figure.

Fc1ccc(-n2cc(C3CCNCC3)c3cc(Cl)ccc32)cc1 :: 6.69
O=C1NCCN1CCN1CCC(C2CN(c3ccc(F)cc3)c3ccccc32)CC1 (stereo unspecified) :: 7.63
CCCc1cn(-c2ccc(F)cc2)c2ccc(Cl)cc12 :: 4.59

QUERY: # return pIC50 for CCC(O)c1cn(-c2ccc(F)cc2)c2ccc(Cl)cc12 (stereo unspecified) , test system: Voltage-gated inwardly rectifying potassium channel KCNH2 (Homo sapiens, UniProt Q12809)
RESULT: 5.66

====

# tgt: Voltage-gated inwardly rectifying potassium channel KCNH2 (Homo sapiens)
# assay_remarks: Inhibition of K+ channel activity in CHO cells expressing HERG Kv11.1
Each record here notes measured pIC50.
Bear in mind: pIC50 is minus log10 of a mol/L concentration; give just that figure.

CCC(O)(CC)c1cn(-c2ccc(F)cc2)c2ccc(Cl)cc12 :: 4.80
CCc1cn(-c2ccc(F)cc2)c2ccc(Cl)cc12 :: 5.46
CC(O)c1cn(-c2ccc(F)cc2)c2ccc(Cl)cc12 (centres undefined) :: 5.34
O=C1NCCN1CCN1CCC(c2cn(C3CCCCC3)c3ccc(Cl)cc23)CC1 :: 6.86
O=C1NCCN1CCN1CC=C(c2cn(-c3ccc(F)cc3)c3ccc(Cl)cc23)CC1 :: 8.00
Fc1ccc(-n2cc(C3CCN(CCN4CCN=C4S)CC3)c3ccccc32)cc1 :: 8.21
CCC(=O)c1cn(-c2ccc(F)cc2)c2ccc(Cl)cc12 :: 5.71

QUERY: Supply recorded pIC50 for O=C1NCCN1CCN1CCC(c2cn(-c3ccc(F)cc3)c3ccccc23)CC1 here.
RESULT: 8.15
